Test system: phenylquinone writhing
RUN_DESCRIPTION: Phenylquinone writhing test (analgesic activity)
Type: in vivo, female white mice
MEASUREMENT_SETUP: Mus musculus; oral in 1% methylcellulose, fasted mice, observed from 30 minutes after dosing for 10 minutes; effective analgesic dose for 50% of the mice; read-out: PQW ED50
RECORDED_ENDPOINT: ED50

Take a look at these entries with their results.
[
  {
    "MOLECULE": "Fc1ccc(-c2cnc(SC(F)(F)F)nc2-c2ccc(F)cc2)cc1 [Example 2]",
    "RECORDED_ENDPOINT": "ED50",
    "OBSERVED_MEASUREMENT": "> 108 mg/kg"
  },
  {
    "MOLECULE": "COc1ccc(-c2nc(SC)ncc2-c2ccc(Cl)cc2)cc1 [Example 3]",
    "RECORDED_ENDPOINT": "ED50",
    "OBSERVED_MEASUREMENT": "> 108 mg/kg"
  }
]

Then this molecule:
query: Lookup: ED50 / phenylquinone writhing / COc1ccc(-c2cnc(SC(F)(F)C(F)F)nc2-c2ccc(OC)cc2)cc1 [Example 1]
result: > 108 mg/kg
